# Protocol Notes: Mouse blood and tissue PK (LC/MS-MS)
# Format: in vivo
# Condition Notes: mouse, tumor, oral, 50 mg/kg, HPAC #3; 50 mg/kg, 4h; individual animals; read-out: RMC-6236 (nM) Tumor
Property Measured: concentration at 4 h (nM)
Numbers only, in nM.

Given item CCn1c(-c2cc(N3CCN(C)CC3)cnc2[C@H](C)OC)c2c3cc(ccc31)-c1csc(n1)C[C@H](NC(=O)[C@H]1C[C@@H]1C)C(=O)N1CCC[C@H](N1)C(=O)OCC(C)(C)C2 [RMC-6236] , the value recorded as its concentration at 4 h is 4620

----------
# Protocol Notes: Mouse blood and tissue PK (LC/MS-MS)
# Assay type: in vivo
# Condition Notes: mouse, tumor, oral, 40 mg/kg, KP-4, study KP-4 #4, 40 mg/kg, 48h; read-out: RMC-6236 (nM) Tumor
Property Measured: concentration at 48 h
Just the number plus its unit, please.

Recorded concentration at 48 h (compound CCn1c(-c2cc(N3CCN(C)CC3)cnc2[C@H](C)OC)c2c3cc(ccc31)-c1csc(n1)C[C@H](NC(=O)[C@H]1C[C@@H]1C)C(=O)N1CCC[C@H](N1)C(=O)OCC(C)(C)C2 ): 661 nM
